Entries and their growth
Tested on: UO-31 renal
experiment-notes: NCI-60 one-dose screen, 48 h (100 = growth as untreated, 0 = no growth, -100 = all killed)
test-context: 10 µM unless noted
This is part of a sample that, as a whole, favours compounds with a hit. Of some 83,000 tested, about 20% had one in any assay. Active and inactive are the calls of the source. How the source made its calls: active means growth percent below 10; inactive means the rest.
measurement-name: growth

# molecular-string, tgt, measurement-name, readout-value
rows = [
    ("Cc1nc(-c2ccccc2)cc2c(O)c(C(=O)NN)[nH]c(=O)c12", "UO-31 renal", "growth", "97.4% (inactive)"),
    ("N#Cc1c(-c2ccccc2)cc(-c2ccccc2)n(CCCCCC(=O)Nc2ccccc2N)c1=O", "UO-31 renal", "growth", "34.4% (inactive)"),
    ("Fc1cccc(CNc2c3ccccc3nc3ccccc23)c1F", "UO-31 renal", "growth", "40.1% (inactive)"),
    ("Cc1ccc2c3c(c(=O)[nH]c2c1)C1(C(C#N)=C(N)O3)c2cc(Br)ccc2-c2ccc(Br)cc21", "UO-31 renal", "growth", "-62.3% (active)"),
    ("O=c1oc2c(cnc3ccccc32)cc1-c1ccsc1", "UO-31 renal", "growth", "79.3% (inactive)"),
    ("CN(C)Cc1ccc(NC(=O)c2cncc(C#Cc3cnc(N)c4ncccc34)c2)cc1F", "UO-31 renal", "growth", "108% (inactive)"),
    ("CCOc1ccc(NC(=O)CSc2oc(-c3ccccc3)nc2S(=O)(=O)c2ccc(F)cc2)cc1", "UO-31 renal", "growth", "94.5% (inactive)"),
    ("COCCn1cc(-c2nc(-c3cc4cccnc4n3CCOC)cs2)c2cc(OC)ccc21", "UO-31 renal", "growth", "61.9% (inactive)"),
    ("CN1C(=O)/C(=C/c2ccc(C(=O)Nc3ncc(Cc4ccc(Cl)cc4)s3)cc2)SC1=S", "UO-31 renal", "growth", "46.7% (inactive)"),
    ("O=C1/C(=C/c2ccccc2Br)COc2ccc(O)c(O)c21", "UO-31 renal", "growth", "-92.1% (active)"),
]
